Test system: SNB-75 CNS
PROCEDURE_SUMMARY: NCI tumour cell line growth inhibition, 48 h
Below, each entry is listed alongside its reported GI50.
PARAMETER_MEASURED: GI50

INSERT INTO results (sample_smiles, result) VALUES
  ('CCN1C2=C(SC(=S)C1=C1SC(C(=O)OC)=C(C(=O)OC)S1)SC(=Nc1ccc(OC)cc1)C2=O', '1.1 µM'),
  ('CC(C)CNC(=O)c1ccc(NC(=O)N(CC(C)C)C(=O)c2ccc(N)c(OCCCN)c2)c(OCCCN=C(N)N)c1', '> 62.5 µM'),
  ('C=C1C(=O)O[C@H]2[C@H]1CC/C(COC(=O)NCc1c[nH]c3ccc(Br)cc13)=C\CC[C@@]1(C)O[C@@H]21', '1.26 µM'),
  ('COc1cccc(-n2ncc3c(N/N=C/c4cccc(F)c4)ncnc32)c1', '5.05 µM'),
  ('O=C(c1cccs1)c1c(C(F)(F)F)n([O-])c2ccc(Cl)cc2[n+]1=O', '2.76 µM');

====

System: SF-539 CNS
PROCEDURE_SUMMARY: NCI tumour cell line growth inhibition, 48 h
Below, each entry is listed alongside its reported TGI.
PARAMETER_MEASURED: TGI (µM)

INSERT INTO measurements (sample_smiles, parameter_measured, value_units, censoring_qualifier, readout_number) VALUES
  ('N=C(N)c1ccc(-c2ccc(-c3cccs3)o2)cc1', 'TGI', 'µM', '=', 3.14),
  ('c1ccc(-c2nc([P+](c3ccccc3)(c3ccccc3)c3ccccc3)c(N3CCOCC3)o2)cc1', 'TGI', 'µM', '=', 12.2),
  ('O=c1[nH]c2ccccc2c(O)c1/C=N/C(=S)NCCc1ccccc1', 'TGI', 'µM', '>', 100),
  ('COC(=O)[C@]1(C)CCC[C@]2(C)[C@H]3CC[C@]4(C(C)C)OO[C@@H](O4)[C@]34O[C@@H]4C[C@H]21', 'TGI', 'µM', '>', 55.6),
  ('CC(=O)OC(OC(C)=O)c1ncccc1C(=O)OC(C)C', 'TGI', 'µM', '>', 100);

====

Tested on: SW-620 colon
PROCEDURE_SUMMARY: NCI tumour cell line growth inhibition, 48 h
PARAMETER_MEASURED: TGI

INSERT INTO results (sample_smiles, result) VALUES
  ('O=c1[nH]c2ccccc2c(O)c1/C=N/C(=S)NCCc1ccccc1', '> 100 µM'),
  ('O=C(c1cccs1)c1c(C(F)(F)F)n([O-])c2ccc(Cl)cc2[n+]1=O', '4.68 µM'),
  ('COc1ccc2cc(C(=O)NCCCNC(=O)c3ccc4c(OC)c(OC)ccc4c3)ccc2c1OC', '> 100 µM'),
  ('CS(=O)(=O)c1ccc(NNc2cc(=O)[nH]c(=O)[nH]2)cc1', '> 100 µM'),
  ('O=C(O)C1(Cc2ccccc2)Cc2ccccc2C1', '> 100 µM');

====

Test system: UACC-62 melanoma
PROCEDURE_SUMMARY: NCI tumour cell line growth inhibition, 48 h
PARAMETER_MEASURED: TGI

INSERT INTO measurements (compound, result) VALUES
  ('COc1ccc(NC=O)c(C(=O)CCNC(C)=O)c1', '> 100 µM'),
  ('CCN(CC)CCN1CCc2c([nH]c3ccccc23)C1c1cccnc1 (configuration not stated)', '> 100 µM'),
  ('O=C1CC2(CCC(O)(c3ccco3)C(C(=O)c3ccco3)C2)C(=O)c2ccccc2N1 (configuration not stated)', '> 100 µM'),
  ('NC(=O)c1ccc(NCC2=CC(=O)C=CC2=O)cc1', '35.6 µM'),
  ('N=c1c2ccccc2nc2oc3ccccc3n12', '> 100 µM'),
  ('CC(=O)Nc1ccc(S(=O)(=O)/N=C2\C=CC(=O)c3ccccc32)cc1', '12.2 µM'),
  ('COc1nc2ncc([C@@H](O)[C@H](O)CO)nc2c(=O)n1C', '> 100 µM'),
  ('CCOC(=O)c1c(SCCCN2CCCCC2)n(-c2ccccc2)c(=S)n(-c2ccccc2)c1=O', '25.2 µM'),
  ('COc1ccc(-n2cnc3c(NCC(=O)O)ncnc32)cc1', '> 100 µM'),
  ('N=C(N)c1ccc(-c2ccc(-c3cccs3)o2)cc1', '3.35 µM'),
  ('N=C(N)CCNC(=O)C1CCC(N)=N1 (configuration not stated)', '> 100 µM'),
  ('COc1c(Cl)nc2ccccc2c1N=[N+]=[N-]', '> 100 µM');

The measurements presented in this section are drawn from PubChem BioAssay (NCI).
